assay: Cmax in male Sprague-Dawley rats; type: ADME, organism-based; settings: rat, in vivo
Value Type: Cmax (ng/mL)
Entry rule: numbers only, all in ng/mL.

Q: Fill in the blank: the reported Cmax of Cc1c(COc2ccc(-c3ccc(S(=O)(=O)N[C@H](Cc4ccccc4)C(=O)O)cc3)cc2)oc2ccccc12 is ____.
A: 1360

====

target: 72 kDa type IV collagenase (Homo sapiens)
Sequence (P08253 whole entry): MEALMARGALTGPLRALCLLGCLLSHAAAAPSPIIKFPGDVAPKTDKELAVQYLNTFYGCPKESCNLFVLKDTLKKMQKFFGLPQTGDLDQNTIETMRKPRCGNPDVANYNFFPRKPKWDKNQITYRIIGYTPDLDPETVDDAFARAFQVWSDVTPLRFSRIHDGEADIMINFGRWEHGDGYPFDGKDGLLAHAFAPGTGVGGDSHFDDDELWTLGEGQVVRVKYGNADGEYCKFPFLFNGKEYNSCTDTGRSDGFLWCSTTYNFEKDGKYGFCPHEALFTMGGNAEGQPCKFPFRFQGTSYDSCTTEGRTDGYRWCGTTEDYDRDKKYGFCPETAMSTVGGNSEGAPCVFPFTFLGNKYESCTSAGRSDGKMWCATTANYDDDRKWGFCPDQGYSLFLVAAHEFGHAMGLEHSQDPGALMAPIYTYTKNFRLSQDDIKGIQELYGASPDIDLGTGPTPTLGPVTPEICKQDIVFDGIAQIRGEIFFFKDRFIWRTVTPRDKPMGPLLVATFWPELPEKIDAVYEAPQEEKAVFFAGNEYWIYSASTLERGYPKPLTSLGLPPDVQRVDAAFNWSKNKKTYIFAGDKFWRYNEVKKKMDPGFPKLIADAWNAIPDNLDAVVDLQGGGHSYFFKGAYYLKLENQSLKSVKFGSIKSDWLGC
Value Type: IC50 (nM)
Entry rule: numbers only, all in nM.

Q: Fill in the blank: the reported IC50 of Cc1c(COc2ccc(-c3ccc(S(=O)(=O)N[C@H](Cc4ccccc4)C(=O)O)cc3)cc2)oc2ccccc12 is ____.
A: 28
